Quick record: IC50, human HIF-PHD2 (Homo sapiens, UniProt Q9GZT9).
Readout: IC50 (nM)

Below, 2 compounds whose answers are already recorded.
Reported IC50 for CC(C)OC(=O)OCOC(=O)CNC(=O)c1ncc(C(=O)NC(c2ccccc2)c2ccccc2)c(O)n1 : what is it?
41

What value of measured IC50 is listed for O=C(CNC(=O)c1ncc(C(=O)NC(c2ccccc2)c2ccccc2)c(O)n1)Oc1ccc2c(c1)CCC2 ?
11.2

(P) COC(=O)CCNC(=O)c1ncc(C(=O)NC(c2ccccc2)c2ccccc2)c(O)n1
(Q) CC(C)OC(=O)OC(C)OC(=O)CCNC(=O)c1ncc(C(=O)NC(c2ccccc2)c2ccccc2)c(O)n1 (stereo not shown)
Of P and Q , whose reported IC50 is the larger number? // caller expects the label of the chosen entry
Q

(1) CCOC(=O)[C@H](O)CNC(=O)c1ncc(C(=O)NC(c2ccccc2)c2ccccc2)c(O)n1
(2) CC(C)OC(=O)COC(=O)C(C)CNC(=O)c1ncc(C(=O)NC(c2ccccc2)c2ccccc2)c(O)n1 (single isomer, unassigned)
Which item exceeds the other in IC50, 1 or 2 ? Please indicate the selected item by its label.
2
(2: 179 nM, 1: 46.4 nM)

(a) CC(OC(=O)CCNC(=O)c1ncc(C(=O)NC(c2ccccc2)c2ccccc2)c(O)n1)OC(=O)OC1CCCCC1 (stereo not shown)
(b) CC(C)OC(=O)OCOC(=O)CCNC(=O)c1ncc(C(=O)NC(c2ccccc2)c2ccccc2)c(O)n1
Looking only at measured IC50, which entry is lower, a or b ? Return value: the label identifying the chosen record.
b
(b: 2.81 nM, a: 42.1 nM)

(1) O=C(NC[C@@H](O)C(=O)OC1CCCCC1O)c1ncc(C(=O)NC(c2ccccc2)c2ccccc2)c(O)n1 (stereo partly shown)
(2) CCOC(=O)OC(C)OC(=O)CNC(=O)c1ncc(C(=O)NC(c2ccccc2)c2ccccc2)c(O)n1 (stereo not shown)
Lower value for measured IC50? Options: 1 , 2 State the label of the item chosen.
2
(2: 32.2 nM, 1: 182 nM)
